B1: HDV Ribozyme (parent)
chain: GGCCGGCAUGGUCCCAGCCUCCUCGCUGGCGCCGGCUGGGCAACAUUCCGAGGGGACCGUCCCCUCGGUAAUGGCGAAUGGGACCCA

variants of: B1; test: self-cleavage, relative activity (ratio to wild type); higher = more cleavage; co-transcriptional
The threshold is inclusive: self-cleavage of exactly 0.7 counts as Satisfied; values below receive Not satisfied.

[
  {
    "sequence-variant": "G5C G59A",
    "label-value": "Not satisfied"
  },
  {
    "sequence-variant": "G31U U79C",
    "label-value": "Not satisfied"
  },
  {
    "sequence-variant": "G50C G53U",
    "label-value": "Not satisfied"
  },
  {
    "sequence-variant": "G31U A45C",
    "label-value": "Not satisfied"
  },
  {
    "sequence-variant": "C41G G59U",
    "label-value": "Satisfied"
  },
  {
    "sequence-variant": "G40C A43U",
    "label-value": "Not satisfied"
  },
  {
    "sequence-variant": "C58G G59C",
    "label-value": "Satisfied"
  },
  {
    "sequence-variant": "C58G U69A",
    "label-value": "Satisfied"
  },
  {
    "sequence-variant": "C3G C14A",
    "label-value": "Not satisfied"
  },
  {
    "sequence-variant": "G29U G53U",
    "label-value": "Not satisfied"
  },
  {
    "sequence-variant": "C49U G53U",
    "label-value": "Satisfied"
  },
  {
    "sequence-variant": "C18A C85U",
    "label-value": "Not satisfied"
  },
  {
    "sequence-variant": "G68C C84U",
    "label-value": "Satisfied"
  },
  {
    "sequence-variant": "C63A C86U",
    "label-value": "Satisfied"
  },
  {
    "sequence-variant": "C84A A87C",
    "label-value": "Satisfied"
  },
  {
    "sequence-variant": "C32A C75A",
    "label-value": "Not satisfied"
  },
  {
    "sequence-variant": "C15A U65G",
    "label-value": "Not satisfied"
  },
  {
    "sequence-variant": "U47A C84G",
    "label-value": "Satisfied"
  },
  {
    "sequence-variant": "C21U C58G",
    "label-value": "Not satisfied"
  },
  {
    "sequence-variant": "C4A C61A",
    "label-value": "Not satisfied"
  },
  {
    "sequence-variant": "G53C U60G",
    "label-value": "Satisfied"
  },
  {
    "sequence-variant": "U65A G76C",
    "label-value": "Satisfied"
  },
  {
    "sequence-variant": "G50C G73A",
    "label-value": "Not satisfied"
  },
  {
    "sequence-variant": "U47A C63G",
    "label-value": "Not satisfied"
  },
  {
    "sequence-variant": "G6U C41A",
    "label-value": "Not satisfied"
  },
  {
    "sequence-variant": "C3U U23C",
    "label-value": "Satisfied"
  },
  {
    "sequence-variant": "G31C C36G",
    "label-value": "Not satisfied"
  },
  {
    "sequence-variant": "U20A C66U",
    "label-value": "Not satisfied"
  },
  {
    "sequence-variant": "A42C U65A",
    "label-value": "Not satisfied"
  },
  {
    "sequence-variant": "C4G G39A",
    "label-value": "Not satisfied"
  },
  {
    "sequence-variant": "C26A G73C",
    "label-value": "Not satisfied"
  },
  {
    "sequence-variant": "U37A C63U",
    "label-value": "Not satisfied"
  },
  {
    "sequence-variant": "G1U A51C",
    "label-value": "Not satisfied"
  },
  {
    "sequence-variant": "G31U U72C",
    "label-value": "Not satisfied"
  },
  {
    "sequence-variant": "U9A C36U",
    "label-value": "Satisfied"
  },
  {
    "sequence-variant": "G11U C19G",
    "label-value": "Not satisfied"
  },
  {
    "sequence-variant": "G40A C75G",
    "label-value": "Not satisfied"
  },
  {
    "sequence-variant": "A45G C66G",
    "label-value": "Satisfied"
  },
  {
    "sequence-variant": "C22U C24A",
    "label-value": "Not satisfied"
  },
  {
    "sequence-variant": "G28C G67U",
    "label-value": "Not satisfied"
  },
  {
    "sequence-variant": "C24G C61G",
    "label-value": "Not satisfied"
  },
  {
    "sequence-variant": "U20A C85G",
    "label-value": "Not satisfied"
  },
  {
    "sequence-variant": "G1U C41U",
    "label-value": "Not satisfied"
  },
  {
    "sequence-variant": "U27A U79A",
    "label-value": "Not satisfied"
  },
  {
    "sequence-variant": "G29U C57U",
    "label-value": "Not satisfied"
  },
  {
    "sequence-variant": "G31U U47G",
    "label-value": "Not satisfied"
  },
  {
    "sequence-variant": "A16C A77G",
    "label-value": "Satisfied"
  },
  {
    "sequence-variant": "U9A G25C",
    "label-value": "Not satisfied"
  },
  {
    "sequence-variant": "U47G U79C",
    "label-value": "Not satisfied"
  },
  {
    "sequence-variant": "C4G U69G",
    "label-value": "Not satisfied"
  },
  {
    "sequence-variant": "C24U C58G",
    "label-value": "Satisfied"
  },
  {
    "sequence-variant": "C49U C58A",
    "label-value": "Satisfied"
  },
  {
    "sequence-variant": "G11U G82U",
    "label-value": "Not satisfied"
  },
  {
    "sequence-variant": "G6U G80U",
    "label-value": "Not satisfied"
  },
  {
    "sequence-variant": "C22A A45G",
    "label-value": "Not satisfied"
  },
  {
    "sequence-variant": "A70U G74A",
    "label-value": "Not satisfied"
  },
  {
    "sequence-variant": "G59C C63U",
    "label-value": "Satisfied"
  },
  {
    "sequence-variant": "C26G C61A",
    "label-value": "Satisfied"
  },
  {
    "sequence-variant": "G35C U47A",
    "label-value": "Not satisfied"
  },
  {
    "sequence-variant": "U37C A87C",
    "label-value": "Satisfied"
  },
  {
    "sequence-variant": "C18U U27G",
    "label-value": "Not satisfied"
  },
  {
    "sequence-variant": "A51C G54C",
    "label-value": "Satisfied"
  },
  {
    "sequence-variant": "C13U C62G",
    "label-value": "Not satisfied"
  },
  {
    "sequence-variant": "G52C G76A",
    "label-value": "Satisfied"
  },
  {
    "sequence-variant": "G59U A87C",
    "label-value": "Satisfied"
  },
  {
    "sequence-variant": "C24A A51C",
    "label-value": "Not satisfied"
  },
  {
    "sequence-variant": "G11C G74A",
    "label-value": "Not satisfied"
  },
  {
    "sequence-variant": "U20A G80A",
    "label-value": "Not satisfied"
  },
  {
    "sequence-variant": "U12A U65C",
    "label-value": "Not satisfied"
  },
  {
    "sequence-variant": "C26A A56U",
    "label-value": "Satisfied"
  },
  {
    "sequence-variant": "A70C A83U",
    "label-value": "Not satisfied"
  },
  {
    "sequence-variant": "G1A C18A",
    "label-value": "Not satisfied"
  },
  {
    "sequence-variant": "U60C A83C",
    "label-value": "Not satisfied"
  },
  {
    "sequence-variant": "A71C A77G",
    "label-value": "Not satisfied"
  },
  {
    "sequence-variant": "G55C U79G",
    "label-value": "Satisfied"
  },
  {
    "sequence-variant": "C36U U69G",
    "label-value": "Not satisfied"
  },
  {
    "sequence-variant": "G11C G35U",
    "label-value": "Not satisfied"
  },
  {
    "sequence-variant": "C14U C30U",
    "label-value": "Not satisfied"
  },
  {
    "sequence-variant": "G35A U69A",
    "label-value": "Not satisfied"
  },
  {
    "sequence-variant": "U9G G50A",
    "label-value": "Satisfied"
  },
  {
    "sequence-variant": "U12A U27A",
    "label-value": "Satisfied"
  },
  {
    "sequence-variant": "G5C A56G",
    "label-value": "Not satisfied"
  },
  {
    "sequence-variant": "A16G G82C",
    "label-value": "Not satisfied"
  },
  {
    "sequence-variant": "G54A C57G",
    "label-value": "Satisfied"
  },
  {
    "sequence-variant": "U27C G40A",
    "label-value": "Not satisfied"
  },
  {
    "sequence-variant": "A56U U65G",
    "label-value": "Satisfied"
  },
  {
    "sequence-variant": "G1C C36U",
    "label-value": "Not satisfied"
  },
  {
    "sequence-variant": "G10U G34U",
    "label-value": "Not satisfied"
  }
]
